Below: a set of entries, each annotated with reported pIC50.
Target: G protein-coupled receptor kinase 5 (Bos taurus)
Sequence (P43249 whole entry): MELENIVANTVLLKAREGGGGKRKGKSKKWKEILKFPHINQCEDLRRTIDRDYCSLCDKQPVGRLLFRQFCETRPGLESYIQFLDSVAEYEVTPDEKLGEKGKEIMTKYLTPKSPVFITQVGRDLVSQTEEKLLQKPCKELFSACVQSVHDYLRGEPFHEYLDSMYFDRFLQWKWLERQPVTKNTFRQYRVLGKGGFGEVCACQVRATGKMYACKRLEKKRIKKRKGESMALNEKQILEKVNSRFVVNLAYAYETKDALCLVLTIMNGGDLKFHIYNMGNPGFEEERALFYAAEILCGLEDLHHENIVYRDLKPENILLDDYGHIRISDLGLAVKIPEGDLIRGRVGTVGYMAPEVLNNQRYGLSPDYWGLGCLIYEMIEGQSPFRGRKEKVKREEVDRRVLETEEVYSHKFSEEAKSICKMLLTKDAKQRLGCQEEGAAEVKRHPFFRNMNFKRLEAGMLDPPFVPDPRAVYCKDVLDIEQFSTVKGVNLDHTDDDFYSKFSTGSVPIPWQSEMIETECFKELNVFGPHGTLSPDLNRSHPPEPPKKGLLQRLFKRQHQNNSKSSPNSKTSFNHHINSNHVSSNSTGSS
pIC50: −log10 of the molar value.
measured endpoint: pIC50

• Cn1c(CNc2cccc(C(=O)NCc3ccccc3C(F)(F)F)c2)nnc1-c1ccncc1 = 5.04
• O=C(NCc1ccccn1)c1cc([C@@H]2CCNC[C@H]2COc2ccc3c(c2)OCO3)ccc1F = 4.77
• O=C(NCc1ccccc1C(F)(F)F)c1cc([C@@H]2CCNC[C@H]2COc2ccc3c(c2)OCO3)ccc1F = 4.12
• O=C(NCc1c(Cl)cccc1Cl)c1cc([C@@H]2CCNC[C@H]2COc2ccc3c(c2)OCO3)ccc1F = 4.48
• COc1cccc(OC)c1CNC(=O)c1cc([C@@H]2CCNC[C@H]2COc2ccc3c(c2)OCO3)ccc1F = 4.42
• O=C(NCc1ccccc1)c1cc([C@@H]2CCNC[C@H]2COc2ccc3c(c2)OCO3)ccc1F = 4.07
• O=C(NCc1cccnc1)c1cc([C@@H]2CCNC[C@H]2COc2ccc3c(c2)OCO3)ccc1F = 4.12

The values you see were collected from ChEMBL document CHEMBL4043080.
